# experiment.description: Kinetic solubility at pH 1 and 7
# Type: physicochemical
# condition.context: 23 °C, simulated gastric fluid, kinetic from dmso stock; pH 1, 24-hour incubation at ambient temperature, 1.0% DMSO; read-out: Kinetic Solubility pH 1
recorded.metric: solubility kinetic at 24 h (µM)

- compound: "O=c1[nH]cc(-c2cc([C@H]3C[C@@H]3c3ccc4cnn(CC(F)(F)F)c4n3)c3ncc(F)n3n2)c(=O)[nH]1 [E, reference compound]"
  scale.unit: "µM"
  solubility kinetic at 24 h: 94

(P) O=c1[nH]c(=O)n(COP(=O)(O)O)cc1-c1cc([C@H]2C[C@@H]2c2ccc3cnn(CC(F)(F)F)c3c2)c2ncc(F)n2n1
(Q) O=c1[nH]c(=O)n(COP(=O)(O)O)cc1-c1cc([C@H]2C[C@@H]2c2ccc3cnn(CC(F)(F)F)c3c2)n2nccc2n1
Quick one: lower solubility kinetic at 24 h, P or Q ? Output the label that corresponds to your choice.
Q
(Q: 10 µM, P: 96 µM)

(I) O=c1c(-c2cc([C@H]3C[C@@H]3c3ccc4cnn(CC(F)(F)F)c4c3)c3ncc(F)n3n2)cn(COP(=O)(O)O)c(=O)n1COP(=O)(O)O
(II) O=c1[nH]c(=O)n(COP(=O)(O)O)cc1-c1cc([C@H]2C[C@@H]2c2ccc3cnn(CC(F)(F)F)c3c2)c2nccn2n1
Returns: the label, I or II , whose recorded solubility kinetic at 24 h is the lower number. # respond with the chosen item's label
II
(II: 3 µM, I: 91 µM)

Cited source: patent US11919869B2
